# Test target: SHP-2 full length protein (Homo sapiens (Human))
# Sequence (Q06124 whole entry): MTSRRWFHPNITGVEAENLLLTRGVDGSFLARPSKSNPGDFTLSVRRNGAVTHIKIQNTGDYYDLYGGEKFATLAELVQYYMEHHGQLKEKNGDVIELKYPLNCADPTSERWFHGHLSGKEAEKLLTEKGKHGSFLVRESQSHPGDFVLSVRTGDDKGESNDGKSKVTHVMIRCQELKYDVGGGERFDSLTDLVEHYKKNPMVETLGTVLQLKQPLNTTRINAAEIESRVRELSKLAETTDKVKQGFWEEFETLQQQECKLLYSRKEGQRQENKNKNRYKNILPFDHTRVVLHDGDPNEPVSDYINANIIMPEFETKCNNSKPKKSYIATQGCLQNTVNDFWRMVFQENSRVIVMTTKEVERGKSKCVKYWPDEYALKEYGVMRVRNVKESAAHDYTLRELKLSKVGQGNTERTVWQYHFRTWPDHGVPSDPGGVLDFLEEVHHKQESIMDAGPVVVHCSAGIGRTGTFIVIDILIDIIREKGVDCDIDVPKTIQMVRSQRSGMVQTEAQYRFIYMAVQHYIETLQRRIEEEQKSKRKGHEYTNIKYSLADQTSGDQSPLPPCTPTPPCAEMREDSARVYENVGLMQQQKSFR
# Method summary: SHP-2 biochemical DiFMUP pseudosubstrate-fluorogenic assay
# Test parameters: 0.2 nM SHP-2, 1 μM IRS-1 activator peptide, 50 μM DiFMUP; read-out: SHP2 IC50
pIC50: −log10 of the molar value.
Think of 8 as a floor: if pIC50 stands on it or above, it is criterion met; beneath it, criterion not met.

Qu. Reported pIC50 reaches at least 8 for Cc1nc(N2CCC3(CCC[C@H]3N)CC2)n2ccnc2c1-c1ccc2cn[nH]c2c1 ?
Ans. criterion not met

Qu. Reported pIC50 reaches at least 8 for Cc1nc(N2CCC3(CCC[C@H]3N)CC2)n2ccnc2c1-c1ccncc1 ?
Ans. criterion not met

Qu. Reported pIC50 reaches at least 8 for Cc1nc(N2CCC3(CCC[C@H]3N)CC2)n2ccnc2c1-c1cccc2[nH]ccc12 ?
Ans. criterion not met

Qu. Reported pIC50 reaches at least 8 for Cc1nc(N2CCC3(CCC[C@H]3N)CC2)n2ccnc2c1-c1ccccc1Cl ?
Ans. criterion not met

Qu. Reported pIC50 reaches at least 8 for Cc1nc(N2CCC3(CCC[C@H]3N)CC2)n2ccnc2c1-c1cccnc1C(F)(F)F ?
Ans. criterion not met

Qu. Reported pIC50 reaches at least 8 for C[C@@H]1OCC2(CCN(c3ncc(Sc4cccc(Cl)c4Cl)c4nccn34)CC2)[C@@H]1N ?
Ans. criterion met

----------
# Test target: SHP-2 full length protein (Homo sapiens (Human))
# Method summary: SHP-2 biochemical DiFMUP pseudosubstrate-fluorogenic assay
# Test parameters: 0.2 nM SHP-2, 1 μM IRS-1 activator peptide, 50 μM DiFMUP; read-out: SHP2 IC50
Exercise: state measured IC50 for each of the molecules provided.
Write the answer as a number in nM, unit excluded.

Qu. Report IC50, nothing else, for this molecule: C[C@@H]1OCC2(CCN(c3ncc(Sc4cccc5cnsc45)c4nccn34)CC2)[C@@H]1N [Example 107]
Ans. 3.7

Qu. Report IC50, nothing else, for this molecule: Cc1nc(N2CCC3(CC2)C[C@@H](O)C[C@H]3N)n2cnnc2c1-c1cccc(Cl)c1Cl [Example 68]
Ans. 9.4

Qu. Report IC50, nothing else, for this molecule: N[C@@H]1c2ccccc2CC12CCN(c1ncc(Sc3ccnc4ccsc34)c3nccn13)CC2 [Example 139]
Ans. 1.7

Qu. Report IC50, nothing else, for this molecule: N[C@@H]1CCCC12CCN(c1ncc(Sc3cncnc3C(F)(F)F)c3nccn13)CC2 [Example 54]
Ans. 4800
